These entries and their values trace back to paper PMC3418449.

- MEASURED_TARGET: GRK2 (S670A), flow cytometry and crystallography (bovine, UniProt P21146 1-689, S670A)
- Sequence (P21146 whole entry S670A): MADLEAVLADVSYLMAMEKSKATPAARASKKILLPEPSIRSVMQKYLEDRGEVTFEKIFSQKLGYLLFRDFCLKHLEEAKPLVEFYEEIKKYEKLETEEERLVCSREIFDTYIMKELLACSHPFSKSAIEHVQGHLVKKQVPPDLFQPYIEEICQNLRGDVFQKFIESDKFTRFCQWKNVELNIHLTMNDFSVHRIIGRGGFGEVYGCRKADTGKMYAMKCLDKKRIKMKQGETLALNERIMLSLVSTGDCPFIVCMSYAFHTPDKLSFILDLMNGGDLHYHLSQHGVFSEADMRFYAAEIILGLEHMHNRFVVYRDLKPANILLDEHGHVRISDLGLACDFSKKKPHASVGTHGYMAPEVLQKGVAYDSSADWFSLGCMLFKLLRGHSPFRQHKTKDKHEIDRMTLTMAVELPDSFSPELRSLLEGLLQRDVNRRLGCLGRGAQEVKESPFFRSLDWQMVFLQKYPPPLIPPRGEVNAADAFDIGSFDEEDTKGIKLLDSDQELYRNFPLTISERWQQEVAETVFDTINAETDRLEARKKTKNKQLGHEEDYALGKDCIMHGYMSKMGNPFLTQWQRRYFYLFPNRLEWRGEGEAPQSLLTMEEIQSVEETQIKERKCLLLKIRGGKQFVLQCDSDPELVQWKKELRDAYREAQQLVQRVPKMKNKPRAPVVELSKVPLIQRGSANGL
- PROTOCOL: flow cytometry bead binding
METRIC_NAME: Kd (nM)

[
  {
    "BINDER": "GGCAGACCAUACGGGAGAGAAACUUGCC (ssRNA) [C13.28]",
    "METRIC_NAME": "Kd",
    "NUMERIC_READOUT": 1.2
  }
]
